# System: A549
# Assay text: Cytotoxicity against human A549 cells
# Assay type: functional, cell-based
pIC50: −log10 of the molar value.
Can you tell me pIC50 for the items I'm about to list?

{"Molecule": "COc1ccc2cc(NC(=O)C3=NO[C@H]4[C@H](O)C=C[C@@H](O)[C@@]4(O)C3)c(=O)oc2c1OC [TRICHODERMAMIDE A]", "pIC50": "< 4.00"}

Okay, now this molecule:
The reported pIC50 of the molecule COc1ccc2cc(NC(=O)[C@@]34C[C@]5(O)[C@@H](C=C[C@@H](O)[C@@H]5ON3)S4)c(=O)oc2c1OC was < 4.00

====

# System: PC-3
# Assay text: Cytotoxicity against human PC3 cells after 24 to 72 hrs by MTT assay
# Assay type: functional, cell-based
Assay readout: IC50

Quick note, IC50 for COc1ccc([C@H]2SS[C@@]34C[C@]5(O)[C@H](Cl)C=C[C@@H](O)[C@@H]5ON3C(=O)[C@@H]2N(C)C4=O)c(O)c1OC landed at 0.51 to 5.11 µM
